Target: NHE3 (Homo sapiens)
Construct: expressed in transfected cells
Sequence (P48764 26-834): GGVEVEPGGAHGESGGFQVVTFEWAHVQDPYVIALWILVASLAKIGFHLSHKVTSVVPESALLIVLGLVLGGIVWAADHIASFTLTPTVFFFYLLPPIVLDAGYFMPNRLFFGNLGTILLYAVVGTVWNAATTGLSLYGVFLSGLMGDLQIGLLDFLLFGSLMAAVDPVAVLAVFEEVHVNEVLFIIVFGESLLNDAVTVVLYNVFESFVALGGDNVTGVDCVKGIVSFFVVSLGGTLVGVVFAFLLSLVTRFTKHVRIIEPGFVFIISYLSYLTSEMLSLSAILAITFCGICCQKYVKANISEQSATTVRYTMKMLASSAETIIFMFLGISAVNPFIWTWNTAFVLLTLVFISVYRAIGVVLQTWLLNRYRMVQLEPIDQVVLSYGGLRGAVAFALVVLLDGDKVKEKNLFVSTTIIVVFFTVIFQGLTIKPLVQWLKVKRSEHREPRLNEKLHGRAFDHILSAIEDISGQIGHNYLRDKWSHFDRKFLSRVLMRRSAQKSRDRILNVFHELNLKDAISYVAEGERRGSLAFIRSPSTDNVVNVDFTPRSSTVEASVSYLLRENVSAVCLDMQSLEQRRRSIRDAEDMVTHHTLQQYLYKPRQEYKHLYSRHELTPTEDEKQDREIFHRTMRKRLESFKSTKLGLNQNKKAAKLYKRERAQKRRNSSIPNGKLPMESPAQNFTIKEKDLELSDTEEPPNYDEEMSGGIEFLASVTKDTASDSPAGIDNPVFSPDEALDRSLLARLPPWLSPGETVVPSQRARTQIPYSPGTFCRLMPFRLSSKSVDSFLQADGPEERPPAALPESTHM
Sequence (Q99653 2-195 partner limits assumed): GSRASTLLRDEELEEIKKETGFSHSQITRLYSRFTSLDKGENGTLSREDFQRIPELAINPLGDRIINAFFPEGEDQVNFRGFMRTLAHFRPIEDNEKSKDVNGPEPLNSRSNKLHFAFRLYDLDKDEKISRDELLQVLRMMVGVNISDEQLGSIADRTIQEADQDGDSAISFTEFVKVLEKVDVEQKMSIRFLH
Test: Cell-based assay of NHE-3 activity (pre-incubation inhibition), human
Settings: human Preincubation

Chem Smiles	Assay System	% inhibition
C[C@@H]1CN([C@H]2Cc3c(C#N)cc(Cl)cc3[C@@H]2Oc2ccc(S(=O)(=O)N[C@H]3CCN(CCOCCNC(=O)NCCCCNC(=O)NCCOCCN4CC[C@H](NS(=O)(=O)c5ccc(O[C@H]6c7cc(Cl)cc(C#N)c7C[C@@H]6N6C[C@@H](C)N[C@@H](C)C6)cc5)C4)C3)cc2)C[C@H](C)N1	NHE3 (Homo sapiens)	C (>70%)
N[C@@H]1CCCN([C@H]2Cc3c(Cl)cc(Cl)cc3[C@@H]2Oc2ccc(S(=O)(=O)NCCOCCOCCNC(=O)NCCCCNC(=O)NCCOCCOCCNS(=O)(=O)c3ccc(O[C@H]4c5cc(Cl)cc(Cl)c5C[C@@H]4N4CCC[C@@H](N)C4)cc3F)c(F)c2)C1	NHE3 (Homo sapiens)	C (>70%)
N#Cc1cc(Cl)cc2c1C[C@H](N1CCNCC1)[C@H]2Oc1ccc(S(=O)(=O)N[C@@H]2CCN(C(=O)CCCNC(=O)NCCCCNC(=O)NCCCC(=O)N3CC[C@@H](NS(=O)(=O)c4ccc(O[C@H]5c6cc(Cl)cc(C#N)c6C[C@@H]5N5CCNCC5)cc4)C3)C2)cc1	NHE3 (Homo sapiens)	C (>70%)

* * *

Molecular target: NHE3 (Homo sapiens)
Construct: expressed in transfected cells
Test: Cell-based assay of NHE-3 activity (persistent inhibition), human
Conditions: human Persistence, 60 min incubation then washout

Chem Smiles	% inhibition
N[C@@H]1CCCN([C@H]2Cc3c(Cl)cc(Cl)cc3[C@@H]2Oc2c(F)cc(S(=O)(=O)NCCOCCOCCNC(=O)NCCCCNC(=O)NCCOCCOCCNS(=O)(=O)c3cc(F)c(O[C@H]4c5cc(Cl)cc(Cl)c5C[C@@H]4N4CCC[C@@H](N)C4)c(F)c3)cc2F)C1	C (>70%)
N#Cc1cc(Cl)cc2c1C[C@H](N1CCNCC1)[C@H]2Oc1ccc(S(=O)(=O)NC(=O)CCCNC(=O)NCCCCNC(=O)NCCCC(=O)NS(=O)(=O)c2ccc(O[C@H]3c4cc(Cl)cc(C#N)c4C[C@@H]3N3CCNCC3)cc2)cc1	C (>70%)

* * *

Molecular target: NHE3 (Homo sapiens)
Construct: expressed in transfected cells
Assay: Cell-based assay of NHE-3 activity (persistent inhibition), human
Details: human Persistence, 60 min incubation then washout
Reported Endpoint: % inhibition

Answered examples (5):
Chem Smiles	Value Measured
Cc1cc(S(=O)(=O)NCCOCCOCCNC(=O)NCCCCNC(=O)NCCOCCOCCNS(=O)(=O)c2ccc(O[C@H]3c4cc(Cl)cc(C)c4C[C@@H]3N3CCC[C@@H](N(C)C)C3)c(C)c2)ccc1O[C@H]1c2cc(Cl)cc(C)c2C[C@@H]1N1CCC[C@@H](N(C)C)C1	C (>70%)
N#Cc1cc(Cl)cc2c1C[C@H](N1CCCNCC1)[C@H]2Oc1ccc(S(=O)(=O)N[C@@H]2CCN(CCOCCNC(=O)NCCCCNC(=O)NCCOCCN3CC[C@@H](NS(=O)(=O)c4ccc(O[C@H]5c6cc(Cl)cc(C#N)c6C[C@@H]5N5CCCNCC5)cc4)C3)C2)cc1	A (NHE3 < 40%)
Cc1cc(S(=O)(=O)N2CC[C@H](COCCOCCNC(=O)NCCCCNC(=O)NCCOCCOC[C@H]3CCN(S(=O)(=O)c4ccc(O[C@H]5c6cc(Cl)cc(C#N)c6C[C@@H]5N(C)C)c(C)c4)C3)C2)ccc1O[C@H]1c2cc(Cl)cc(C#N)c2C[C@@H]1N(C)C	C (>70%)
N[C@@H]1CCCN([C@H]2Cc3c(Cl)cc(Cl)cc3[C@@H]2Oc2ccc(S(=O)(=O)NCCCCCCn3cc(CNC(=O)NCCCCNC(=O)NCc4cn(CCCCCCNS(=O)(=O)c5ccc(O[C@H]6c7cc(Cl)cc(Cl)c7C[C@@H]6N6CCC[C@@H](N)C6)cc5)nn4)nn3)cc2)C1	C (>70%)
C[C@@H]1CN([C@H]2Cc3c(C#N)cc(Cl)cc3[C@@H]2Oc2ccc(S(=O)(=O)N[C@H]3CCN(CCOCCNC(=O)NCCCCNC(=O)NCCOCCN4CC[C@H](NS(=O)(=O)c5ccc(O[C@H]6c7cc(Cl)cc(C#N)c7C[C@@H]6N6CCN[C@H](C)C6)cc5)C4)C3)cc2)CCN1	C (>70%)

Request: GET /values?readout=% inhibition&item= C[C@H](COCCOCCNC(=O)NCCCCNC(=O)NCCOCCOC[C@@H](C)NS(=O)(=O)c1ccc(O[C@H]2c3cc(Cl)cc(Cl)c3C[C@@H]2N2CCC[C@@H](N)C2)cc1)NS(=O)(=O)c1ccc(O[C@H]2c3cc(Cl)cc(Cl)c3C[C@@H]2N2CCC[C@@H](N)C2)cc1
Response: C (>70%)

Request: GET /values?readout=% inhibition&item= COc1cc(Cl)cc2c1C[C@H](N(C)C)[C@H]2Oc1ccc(S(=O)(=O)NCCOCCOCCNC(=O)NCCCCNC(=O)NCCOCCOCCNS(=O)(=O)c2ccc(O[C@H]3c4cc(Cl)cc(OC)c4C[C@@H]3N(C)C)cc2)cc1
Response: A (NHE3 < 40%)

* * *

Target: NHE3 (Homo sapiens)
Construct: expressed in transfected cells
Assay: Cell-based assay of NHE-3 activity (pre-incubation inhibition), human
Settings: human Preincubation

Chem Smiles	Assay System	% inhibition
C[C@H]1CCCCN1[C@H]1Cc2c(Cl)cc(Cl)cc2[C@@H]1Oc1ccc(S(=O)(=O)NCCOCCOCCNC(=O)NCCCCNC(=O)NCCOCCOCCNS(=O)(=O)c2ccc(O[C@H]3c4cc(Cl)cc(Cl)c4C[C@@H]3N3CCCC[C@@H]3C)cc2)cc1	NHE3 (Homo sapiens)	C (>70%)
Cc1cc(Cl)cc2c1C[C@H](N1CCNCC1)[C@H]2Oc1ccc(S(=O)(=O)NCCOCCOCCNC(=O)NCCCCNC(=O)NCCOCCOCCNS(=O)(=O)c2ccc(O[C@H]3c4cc(Cl)cc(C)c4C[C@@H]3N3CCNCC3)c(F)c2)cc1F	NHE3 (Homo sapiens)	C (>70%)
CN(C)[C@H]1CCCN([C@H]2Cc3c(C#N)cc(Cl)cc3[C@@H]2Oc2ccc(S(=O)(=O)NCCOCCOCCNC(=O)NCCCCNC(=O)NCCOCCOCCNS(=O)(=O)c3ccc(O[C@H]4c5cc(Cl)cc(C#N)c5C[C@@H]4N4CCC[C@H](N(C)C)C4)cc3)cc2)C1	NHE3 (Homo sapiens)	C (>70%)

* * *

Test system: absorption of sodium from the intestinal lumen
Test: Inhibition of intestinal sodium absorption in mice
Assay type: in vivo
Details: CD-1 mice, 15 mg/kg oral gavage twice daily, day 3, change from vehicle group mean
Reported Endpoint: Fecal fluid content (Δ from vehicle)

Answered examples (6):
Chem Smiles	Value Measured
Cc1cc(S(=O)(=O)NCCOCCOCCNC(=O)NCCCCNC(=O)NCCOCCOCCNS(=O)(=O)c2ccc(O[C@H]3c4cc(Cl)cc(C)c4C[C@@H]3N3CCNCC3)c(C)c2)ccc1O[C@H]1c2cc(Cl)cc(C)c2C[C@@H]1N1CCNCC1	A (<5)
Cc1cc(O[C@H]2c3cc(Cl)cc(Cl)c3C[C@@H]2N(C)C)c(F)cc1S(=O)(=O)NCCOCCOCCNC(=O)NCCCCNC(=O)NCCOCCOCCNS(=O)(=O)c1cc(F)c(O[C@H]2c3cc(Cl)cc(Cl)c3C[C@@H]2N(C)C)cc1C	B (5-10)
Cc1cc(S(=O)(=O)N2CC[C@@H](COCCOCCNC(=O)NCCCCNC(=O)NCCOCCOC[C@@H]3CCN(S(=O)(=O)c4ccc(O[C@H]5c6cc(Cl)cc(Cl)c6C[C@@H]5N(C)C)c(C)c4)C3)C2)ccc1O[C@H]1c2cc(Cl)cc(Cl)c2C[C@@H]1N(C)C	A (<5)
Cc1cc(S(=O)(=O)NCCOCCOCCNC(=O)NCCCCNC(=O)NCCOCCOCCNS(=O)(=O)c2ccc(O[C@H]3c4cc(Cl)cc(Cl)c4C[C@@H]3N3CCNCC3)c(C)c2)ccc1O[C@H]1c2cc(Cl)cc(Cl)c2C[C@@H]1N1CCNCC1	A (<5)
Cc1cc(S(=O)(=O)N[C@@H]2CCN(CCOCCNC(=O)NCCCCNC(=O)NCCOCCN3CC[C@@H](NS(=O)(=O)c4ccc(O[C@H]5c6cc(Cl)cc(C#N)c6C[C@@H]5N(C)C)c(C)c4)C3)C2)ccc1O[C@H]1c2cc(Cl)cc(C#N)c2C[C@@H]1N(C)C	B (5-10)
Cc1cc(Cl)cc2c1C[C@H](N1CCNCC1)[C@H]2Oc1ccc(S(=O)(=O)NCCOCCOCCNC(=O)NCCCCNC(=O)NCCOCCOCCNS(=O)(=O)c2ccc(O[C@H]3c4cc(Cl)cc(C)c4C[C@@H]3N3CCNCC3)cc2)cc1	B (5-10)

Request: # query: Fecal fluid content (Δ from vehicle) | item Cc1cc(Cl)cc2c1C[C@H](N1CCC[C@@H](N(C)C)C1)[C@H]2Oc1ccc(S(=O)(=O)NCCOCCOCCNC(=O)NCCCCNC(=O)NCCOCCOCCNS(=O)(=O)c2ccc(O[C@H]3c4cc(Cl)cc(C)c4C[C@@H]3N3CCC[C@@H](N(C)C)C3)cc2)cc1 | system: absorption of sodium from the intestinal lumen
Response: B (5-10)

Request: # query: Fecal fluid content (Δ from vehicle) | item CN(C)[C@H]1Cc2c(Cl)cc(Cl)cc2[C@@H]1Oc1ccc(S(=O)(=O)NCCOCCOCCNC(=O)NCCCCNC(=O)NCCOCCOCCNS(=O)(=O)c2ccc(O[C@H]3c4cc(Cl)cc(Cl)c4C[C@@H]3N(C)C)c(F)c2)cc1F | system: absorption of sodium from the intestinal lumen
Response: B (5-10)

Request: # query: Fecal fluid content (Δ from vehicle) | item Cc1cc(Cl)cc2c1C[C@H](N1CCC[C@@H](N(C)C)C1)[C@H]2Oc1ccc(S(=O)(=O)NCCOCCOCCNC(=O)NCCCCNC(=O)NCCOCCOCCNS(=O)(=O)c2ccc(O[C@H]3c4cc(Cl)cc(C)c4C[C@@H]3N3CCC[C@@H](N(C)C)C3)c(F)c2)cc1F | system: absorption of sodium from the intestinal lumen
Response: C (>10)

Request: # query: Fecal fluid content (Δ from vehicle) | item CN(C)[C@@H]1CCCN([C@H]2Cc3c(Cl)cc(Cl)cc3[C@@H]2Oc2ccc(S(=O)(=O)NCCOCCOCCNC(=O)NCCCCNC(=O)NCCOCCOCCNS(=O)(=O)c3ccc(O[C@H]4c5cc(Cl)cc(Cl)c5C[C@@H]4N4CCC[C@@H](N(C)C)C4)c(F)c3)cc2F)C1 | system: absorption of sodium from the intestinal lumen
Response: C (>10)

Request: # query: Fecal fluid content (Δ from vehicle) | item Cc1cc(Cl)cc2c1C[C@H](N(C)C)[C@H]2Oc1ccc(S(=O)(=O)NCCOCCOCCNC(=O)NCCCCNC(=O)NCCOCCOCCNS(=O)(=O)c2ccc(O[C@H]3c4cc(Cl)cc(C)c4C[C@@H]3N(C)C)c(F)c2)cc1F | system: absorption of sodium from the intestinal lumen
Response: A (<5)
